tested on: HL-60(TB) leukemia; test: NCI-60 one-dose screen, 48 h; conditions: 10 µM unless noted
About 83,000 compounds went through this panel and 20% of them were active in at least one assay; those are over-represented in the sample as a whole. Activity calls are given as the source filed them. How the source made its calls: active means growth percent below 10; inactive means the rest.
Classes used: YES for active, NO for inactive

compound: c1ccc2nc(Cn3c[n+](Cc4ccc5ccccc5n4)c4ccccc43)ccc2c1
category: YES

compound: CCOC(=O)c1[nH]c2c(c1C)-c1[nH]c(=O)c(S(=O)(=O)c3ccccc3)cc1SC2
category: NO

compound: Cc1cc(N(CCCNc2ccnc3cc(Cl)ccc23)Cc2ccccn2)nc(N2CCOCC2)n1
category: NO

compound: O=C(CN1C(=O)S/C(=C\C(Cl)=C\c2ccccc2)C1=O)NC1C=CS(=O)(=O)C1 (configuration not stated)
category: YES

compound: O=C(CCc1nc2sc3c(c2c(=O)[nH]1)CCC3)NCc1cn(-c2ccccc2)nc1-c1ccccc1
category: NO

compound: O=C(CCl)N1c2ccccc2Sc2ccc3ccccc3c21
category: YES

compound: CS(=O)(=O)c1ccc(-c2nc3ccccc3n2CC(=O)N/N=C/c2ccccc2)cc1
category: NO

compound: c1nc2ccc(-c3cc4ccc5[nH]ncc5c4c4c3CCCC4)cc2[nH]1
category: NO

compound: O=C(Cc1ccccc1)Nc1nnc(NC2CCN(c3nnc(NC(=O)Cc4ccccc4)s3)CC2)s1
category: NO

compound: Cc1ccc2c(C3C(C#N)=C(N)Oc4cc5ccccc5cc43)cc(=O)oc2c1 (configuration not stated)
category: YES

compound: OC1CCCCC1N1CCC(c2ccccc2)CC1 (configuration not stated)
category: NO

compound: O=C1C=C(Nc2ccc([N+](=O)[O-])cc2)c2ccccc2C1=O
category: YES

compound: CCCCc1nc(Cl)c(CO)n1Cc1ccc(-c2ccccc2-c2nn[nH]n2)cc1
category: NO

compound: CCOC(=O)c1ccc2c(c1)c1c(C)c3cccnc3c(C)c1n2C
category: NO

compound: COc1cc2nc(Cl)nc(Nc3cccc(C(=O)/C=C/c4ccc(Cl)cc4)c3)c2cc1OC
category: NO

compound: CCOC(=O)C1=C(C)N=C2SC=C(c3ccc(F)cc3)N2[C@H]1c1cn(-c2ccccc2)nc1-c1ccc(Cl)cc1
category: NO

compound: N#CC1c2ccccc2C=CN1C(=O)N(c1ccccc1)c1ccccc1 (configuration not stated)
category: YES

compound: COC(=O)[C@H](Cc1cn(C)cn1)NC(=O)[C@@H](NC(=O)Nc1cc(C(F)(F)F)cc(C(F)(F)F)c1)C(C)(C)C
category: YES

compound: Clc1nccc2c(-c3csc(-c4c[nH]c5ccc(Br)cc45)n3)c[nH]c12
category: YES

compound: COc1cc2nc(-c3ccc(Cl)cc3)cc(OCCCN3CCC(O)CC3)c2cc1OC
category: NO

compound: CN(C)Cc1ccc(C(=O)Nc2ccc3ncnc(Nc4ccc(Oc5cccc(F)c5)c(Cl)c4)c3c2)cc1
category: YES

compound: Oc1ccc(/C=N/NC(=S)Nc2ccccc2)nc1
category: YES

compound: O=C(Nc1cccc(C(F)(F)F)c1)Nc1ccc(OCc2nnc(-c3ccc(Cl)cc3)o2)c(F)c1
category: NO

compound: Cc1n[nH]c(=O)n(/N=C\c2c[nH]c3ccccc23)c1=O
category: NO

compound: CCCCCCCCCC[N+](C)(C)C
category: YES

compound: CCN(CC)CCOC(=O)N1c2ccccc2Sc2ccccc21
category: NO

compound: N#Cc1c2cccnc2c2nnc3cc(Cl)c(Cl)cc3n12
category: NO

compound: Cn1cc(-c2csc(-c3cn(C(=O)OC(C)(C)C)c4ccccc34)n2)c2cccnc21
category: NO

compound: CN1CCN(C(=O)c2c3c(n4ccccc24)C(=O)c2ncccc2C3=O)CC1
category: NO

compound: COc1ccc2oc(-c3ccc(Cl)cc3)c(N3CCN(C)CC3)c2c1
category: NO

compound: COc1cc(-c2nc3sc(C)cn3c2/C=C2\C(=O)Nc3ccccc32)c(Br)c(OC)c1OC
category: YES

compound: CCN1C2=C(SC(=S)C1=C1SC(C(=O)OC)=C(C(=O)OC)S1)SC(=Nc1ccc(OC)cc1)C2=O
category: NO

* * *

tested on: HS 578T breast; assay: NCI-60 one-dose screen, 48 h (100 = growth as untreated, 0 = no growth, -100 = all killed); details: 10 µM unless noted
This is part of a sample that, as a whole, favours compounds with a hit. Of some 83,000 tested, about 20% had one in any assay.
Field: label. Allowed values: T (growth < 90%) or F (growth >= 90%).

compound: Nc1c(Br)cc2c3c(cccc13)-c1ccccc1-2
category: T

compound: N#CC1=C(N)Oc2cc3c(cc2C1c1cccs1)OCO3 (configuration not stated)
category: T

compound: C#CC1(O)CCC2(C)C(CCC3C4CCC(=O)C4(C)CCC32)C1 (configuration not stated)
category: F

compound: CC(C)(NC(=O)c1nn(CCCCCF)c2ccccc12)c1ccccc1
category: F

compound: CNc1ccc(C(=O)CC(O)CCC(C)C2OC(=O)CC(O)CC(=O)CC(O)CC(O)CC(O)CC(O)CC3(O)CC(O)C(C(=O)OC)C(CC(O[C@@H]4O[C@H](C)[C@@H](O)[C@H](N)[C@@H]4O)/C=C/C=C/C=C/C=C/C=C/C=C/C=C/C2C)O3)cc1 (some centres not stated)
category: T

compound: CCCCCCCC(=O)OCC/C=C/C1OC1C1OC(=O)/C=C\C=C\c2nc(oc2C)/C=C(/C)CCC2OC2C1OC(=O)NC(C)=O (configuration not stated)
category: T

compound: c1ccc(-c2ccc3ccccc3[o+]2)cc1
category: F

* * *

growth for assorted molecules
tested on: MDA-MB-231 breast; assay: NCI-60 one-dose screen, 48 h (100 = growth as untreated, 0 = no growth, -100 = all killed); settings: 10 µM unless noted
About 83,000 compounds went through this panel and 20% of them were active in at least one assay; those are over-represented in the sample as a whole.
measured-property: growth (%)

molecule: NC(=O)C(Cl)Cl
test-system: MDA-MB-231 breast
u: %
measured: 111

molecule: COc1cc(N(CCCl)CCCl)ccc1C=Nc1ccccc1C(=O)O
test-system: MDA-MB-231 breast
u: %
measured: 96.8

molecule: N#CC1c2ccccc2C=CN1C(=O)c1ccc(N(CCCl)CCCl)cc1 (centres undefined)
test-system: MDA-MB-231 breast
u: %
measured: 92.9

molecule: CC(=O)Nc1ccc(Cc2ccc(NC(C)=O)cc2)cc1
test-system: MDA-MB-231 breast
u: %
measured: 105

* * *

growth for assorted compounds
tested on: SK-MEL-2 melanoma; assay: NCI-60 one-dose screen, 48 h (100 = growth as untreated, 0 = no growth, -100 = all killed); details: 10 µM unless noted
Compounds without any hit were thinned out: in the full panel of roughly 83,000, 20% have a hit.

compound: O=C(O)c1cccc(CCl)c1
u: %
growth: 103

compound: CC(=O)Nc1ccc(Cc2ccc(NC(C)=O)cc2)cc1
u: %
growth: 125

compound: CCOC(=O)Nc1cc(Cl)c([N+](=O)[O-])c(NC(=O)OCC)n1
u: %
growth: 74.6

compound: Cc1ccccc1O
u: %
growth: 109

compound: COc1cc(N(CCCl)CCCl)ccc1C=Nc1ccccc1C(=O)O
u: %
growth: 113

compound: CC(=O)[O][Hg][CH2]C1(C)COC(C)([CH2][Hg][O]C(C)=O)CO1 (stereo not given)
u: %
growth: 63.2

compound: CC(=O)OC1CCC2(C)C(=CCC3C4CC(CN5CC5)C(=O)C4(C)CCC32)C1 (stereo not given)
u: %
growth: 106

compound: CCN1CC2(CN(CC)C1=S)C(=O)NC(=O)NC2=O
u: %
growth: 99

compound: FC(F)=C(F)c1ccccc1
u: %
growth: 98.5

compound: CCOC(=O)/C=C(\C)Nc1ccc(N/C(C)=C/C(=O)OCC)c2c1Oc1ccccc1O2
u: %
growth: 100

compound: COC[CH2][Hg][C]#[C][Hg][CH2]COC
u: %
growth: 41.9

compound: Oc1ccccc1OB(Oc1ccccc1O)N(CCCl)CCCl
u: %
growth: 104

compound: CC(=O)O[C@H]1CCC2(C)C(=CCC3C2CCC2(C)/C(=N/OC(=O)c4ccc(N(CCCl)CCCl)cc4)CCC32)C1 (stereo not given in full)
u: %
growth: 99.2

compound: O=[N+]([O-])c1cc([N+](=O)[O-])c(Cl)c(Cl)c1Cl
u: %
growth: -23.8

compound: C[CH2][Pb]([CH2]C)([CH2]C)[O]C(=O)COC
u: %
growth: -38.7

* * *

system: HL-60(TB) leukemia; test: NCI-60 one-dose screen, 48 h (100 = growth as untreated, 0 = no growth, -100 = all killed); conditions: 10 µM unless noted
Compounds without any hit were thinned out: in the full panel of roughly 83,000, 20% have a hit.
Field: label. Allowed values: MET (growth < 80%) or NOT MET (growth >= 80%).

compound: CS(=O)(=O)c1nccc(-c2c(-c3cccc(OCc4ccc(F)cc4)c3)nc3sccn23)n1
category: MET
//
compound: CC(=O)[C@@]12O[C@](C)(c3ccccc3)O[C@@H]1CC1C3CCC4=CC(=O)CC[C@]4(C)C3CC[C@@]12C (stereo not given in full)
category: MET
//
compound: CC(=O)O[C@H]1CC[C@]2(C)[C@H]3CC[C@@H]4[C@H]5[C@H](C(C)C)CC[C@]5(C(=O)OCC(CO)(CO)N=C(N)N)CC[C@@]4(C)[C@]3(C)CC[C@H]2C1(C)C
category: MET
//
compound: O=C1C=CC2(O)OC(c3ccccc3)CC(=O)C2=C1O (stereo not given)
category: MET
//
compound: COc1cc(OC)cc(C(=O)Nc2cnc(Nc3ccc(N4CCOCC4)nc3)nc2Oc2ccc(C(F)(F)F)cc2)c1
category: NOT MET
//
compound: CC(C)CCc1nc2ccc(NCc3ccc(OCCN4CCC(C)CC4)cc3)cc2[nH]1
category: NOT MET
//
compound: CCCC[N+]1(C)CCN=C1Cc1ccccc1 (stereo not given)
category: NOT MET
//
compound: Nc1cc(N)c(N)cc1N
category: MET
//
compound: CC(C)(C)c1cc(/C=N\NC(=O)/C=C/C=C/c2ccc3c(c2)OCO3)c(O)c(C(C)(C)C)c1
category: NOT MET
//
compound: C[C@H](CCCC(=O)NCC#CCN1CCN(C)CC1)[C@H]1CC[C@H]2[C@@H]3CC[C@@H]4CC(=O)CC[C@]4(C)[C@H]3CC[C@]12C
category: NOT MET
//
compound: CC(CC(=O)c1ccccc1)c1ccccc1 (stereo not given)
category: NOT MET
//
compound: O=C(CCCCCCN1CC(=O)N2[C@H](c3ccc(Cl)cc3)c3[nH]c4ccccc4c3C[C@@H]2C1=O)NO
category: MET
//
compound: CCOC(=O)C/C(=N\Nc1cc(=O)[nH]c2ccc(C)cc12)C(=O)OCC
category: NOT MET
//
compound: NC(CCl)=NCC12CC3CC(CC(C3)C1)C2
category: MET
//
compound: COC(=O)c1cc2c(n1Cc1ccccc1)-c1oncc1CCC2
category: MET
//
compound: CCN1C(=O)N(CC)C2C1NN=c1s/c(=C\c3cccc(F)c3)c(=O)n12 (stereo not given)
category: MET
//
compound: Cc1nc(N)nc(N[C@@H](C)c2nc3cccc(NCc4ccc(C(=O)NO)cc4)c3c(=O)n2-c2ccccc2)n1
category: MET
//
compound: N#C/C(=C\c1ccc(Br)cc1)c1cc2ccccc2[nH]1
category: NOT MET
//
compound: CCC(CC)NCCCCCNc1cc(OC)cc2cccnc12
category: NOT MET
//
compound: COc1cc2ncn3c(=O)c4c5c(sc4nc3c2cc1OC)CCCC5
category: NOT MET
//
compound: Oc1ccc(Cc2ccccc2)c2cccnc12
category: MET
//
compound: COc1cc(-c2nn(-c3ccccc3)cc2-c2ccnc(NCCNS(=O)(=O)c3ccc(Cl)cc3)n2)ccc1Cl
category: MET
//
compound: COc1cc2c(Oc3ccc(NC(=O)C4(C(=O)Nc5ccc(F)cc5)CC4)cc3F)ccnc2cc1OCCCN1CCOCC1
category: MET
//
compound: Cc1cc(NC(=O)NCCOc2ccc(N3C(N)=NC(N)=NC3(C)C)cc2Cl)ccc1S(=O)(=O)F
category: MET
